The origin of these recorded values is patent US20230029835A1.

Recorded measurements of kon, one per entry
target: T1, human TSLP recombinant protein (human, UniProt Q969D9 29-159, biotinylated in the blocking and cell-binding assays (sites not given)); assay: SPR BIAcore T200, antibody captured on Protein A, human TSLP injected
T1 construct: also called biotinylated human TSLP protein
endpoint_name: kon (M⁻¹ s⁻¹)

INSERT INTO results (binder, display_unit, quantitative_result) VALUES
  ('Ab26 (antibody, V domains shown, Humanized; also called h39G5VHv10/h71G4VKv1; h39G5VHv10/h71G4VKv1 hIgG1) VH: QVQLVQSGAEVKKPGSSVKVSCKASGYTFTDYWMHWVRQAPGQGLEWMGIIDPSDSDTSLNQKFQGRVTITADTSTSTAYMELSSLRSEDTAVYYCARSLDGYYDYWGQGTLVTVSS VL: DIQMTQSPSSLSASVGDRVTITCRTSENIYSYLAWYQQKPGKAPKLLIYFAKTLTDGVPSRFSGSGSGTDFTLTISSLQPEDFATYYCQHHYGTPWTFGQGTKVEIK', 'M⁻¹ s⁻¹', '1.37e+06'),
  ('Ab23 (antibody, V domains shown, Humanized; also called h39G5VHv2/h71G4VKv1; h39G5VHv2/h71G4VKv1 hIgG1) VH: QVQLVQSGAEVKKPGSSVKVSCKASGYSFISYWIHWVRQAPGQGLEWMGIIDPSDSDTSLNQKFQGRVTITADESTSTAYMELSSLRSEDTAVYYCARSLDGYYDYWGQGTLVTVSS VL: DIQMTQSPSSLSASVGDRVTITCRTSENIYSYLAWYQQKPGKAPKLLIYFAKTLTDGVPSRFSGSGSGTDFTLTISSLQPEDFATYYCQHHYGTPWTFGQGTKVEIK', 'M⁻¹ s⁻¹', '1.98e+06'),
  ('Ab22 (antibody, V domains shown, Humanized; also called h39G5VHv1/h71G4VKv1; h39G5VHv1/h7IG4VKv1 hIgG1) VH: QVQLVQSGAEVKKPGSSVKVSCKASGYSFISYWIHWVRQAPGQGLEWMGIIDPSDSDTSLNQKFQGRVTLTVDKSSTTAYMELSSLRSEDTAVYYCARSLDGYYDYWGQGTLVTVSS VL: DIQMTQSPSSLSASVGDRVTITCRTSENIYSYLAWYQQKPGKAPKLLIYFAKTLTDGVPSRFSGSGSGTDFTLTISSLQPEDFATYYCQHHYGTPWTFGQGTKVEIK', 'M⁻¹ s⁻¹', '1.68e+06'),
  ('Ab24 (antibody, V domains shown, Humanized; also called h39G5VHv5/h71G4VKv1; h39G5VHv5/h71G4VKv1 hIgG1) VH: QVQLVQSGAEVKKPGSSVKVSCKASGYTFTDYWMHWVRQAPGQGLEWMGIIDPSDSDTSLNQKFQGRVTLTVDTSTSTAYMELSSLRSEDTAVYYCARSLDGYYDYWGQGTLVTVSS VL: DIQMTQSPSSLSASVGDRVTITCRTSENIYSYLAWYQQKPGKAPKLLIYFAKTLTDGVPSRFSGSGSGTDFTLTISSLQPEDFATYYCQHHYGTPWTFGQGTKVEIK', 'M⁻¹ s⁻¹', '1.7e+06');
